src = the NTF2 design screens of Basanta et al. (2020)

Assay: protease stability score; higher = more stable; yeast display proteolysis, trypsin and chymotrypsin;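 note: log10 excess protease needed over predicted unfolded state with 0 meaning unfolded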
Could you please report measured protease stability score for the items listed next?
Kindly provide the number alone.

Query: Would you mind telling me what protease stability score value was observed for DEDKQHEFATRNVKAWETNDENQMRRLMDPNAKVRIGDKEYRGREEILRLLNEFKKRVDHVQVKSYDVHNGHVHINIVASVNGQRHEMHVKFQFHNGEIVKMQIDDS ?
Result: 0.203

Query: // same read-out, input: DEDAHKRYEHIERVMEHGDESTLEQLMDPNARIQVGDKEVRGMNKWAKEVAEEIRQMEVRVDIKSVDVRGNRVRVEAKYTVNVNGRPKTATKEVVLDFENGRVSYVQVRFDPDRKKSIDQ
Result: 0.443

Query: // same read-out, input: DNEAARSARRNLKQIERGNEHKVREMADKNAHVRVGDKDLHGREDISTWVKKLKEEMRVRFDLRRVNDKGSTVDLDVTLEMTVNGKPVTMKVTAKLSIHNGKIQSLIWNISDEQKEQRKG
Result: 0.336

Query: // same read-out, input: DDREVDKVEELLKTGDFLKMANRADKNARMQIGDKEYRGREHVQDAAKRLDRQVDTEKVTDLRTDGEKVLVHYIQHFDGQNLEVDVEFHFHNGRLQEVVFHVRDPKKQKEFDKRVG
Result: -0.235

Query: // same read-out, input: DENLLDHMKRLFESGDWDDFSKNADKHVRVHIGEFNYRGREQARTVMNKLQKSADHVEIKRISVHNGQLQMDVTVVVNGETITVRIAAHVSNGRFVELRMSATDSKDKKALQKVQS
Result: 1.03

Query: // same read-out, input: DEEAARKFEHALRVREHGNEHQLQELVDPNARVSIGDKRVKGHERIQHWQETLHHEMRFRMQVDSYEVQGEKVRFNVRVQYDINGQPVDDRMTLVVQFDNGRIKSVEYQIPTEMKRDLKR
Result: 0.032

====

Experiment: protease stability score; higher = more stable; yeast display proteolysis, trypsin and chymotrypsin;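 note: log10 excess protease needed over predicted unfolded state with 0 meaning unfolded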
Classification field: satisfied = protease stability score at or over 0.1; not satisfied = protease stability score under 0.1.

Query: # check: protease stability score of DEDLTKRFRQLIKAQETGDPDKIKNQVDKDVHAHVGDKTVSGREKLATQIHRDVQHSHFKVHVDNVRNHGNKVEVDARMVMNINGRPVTFTVNMDFTFHDGTIHRIKMSISEEDKKKTDS is greater than or equal to 0.1
Result: satisfied

Query: // same read-out, input: DEEALKNWEHQLRAHEQGDENRLKELADPNVRYRVGNHEIRGMQQRVEDASRVKEHMRVQMSIQEVEVRGDKFDATATAEYVVNGRPQQITYKFSFHAHNGKIKNLDVRLDEDQQRKLEK
Result: satisfied

Query: // same read-out, input: DEDAVKVAEKFVEVEETGSEDDFKRLADKDAKIRVGENHVHGRESLLDELRKRRKQINIVIHHVRAEDRGDKVDVEIEAVDERNGKPNQYNVKFKVKMHNGRVKQIDRDRDR
Result: satisfied

Query: // same read-out, input: DEELAKNLKEWWDVLKTGDTDRLKEMADPNAKFQIGDQTIHGMDRFVKEQVHHMQQMRFEIKVDSFSAHDGRIDIDAVQRVRVNGVPIDYTVKIRAEAHNGKWKSMELEIPENVVRELER
Result: satisfied

Query: // same read-out, input: DEKQKKDLLKQAVEMYLSGNSEEVRKLLKDDGEVEAGDQTYKGVEQVMKVVEQFKRYGVKLQMTDLKVDGDTVKVKAKLQNGGKTWEFEVTAQADGGKVDKITFKYSEEAKEDIEKG
Result: not satisfied

Query: // same read-out, input: DEHVIKNFLRVVRTNNEDSFVKMADKDAEITIGDKRYHGREDVHKAAKQRKDAFDEVSIVDYRIDGDKIKVRQSATVNGKKLDFEYTMVLHNGRVRTLDMKARDEEMERRLREIID
Result: not satisfied

Query: // same read-out, input: DHEELEVVKEWFDAIQKGDPKTIQELADKDAEFQIGDKTVRGREHLVETVERRKKHMEFQIRIDRMDVHGDKAVIDVTMSNKHNGQPSQDRYNVRVELHNGKIQNVDQSKRS
Result: not satisfied

====

Assay: protease stability score; higher = more stable; yeast display proteolysis, trypsin and chymotrypsin;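 note: log10 excess protease needed over predicted unfolded state with 0 meaning unfolded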
Could you please report measured protease stability score for the items listed next?
Kindly provide the number alone.

Query: Would you mind telling me what protease stability score value was observed for DEDADRVFEEFIRAKTRGDPDRLSQLVDPNVRMHVGDQELRGRDTVRRFLHEVLHHARNDIHIQSMEVDGDHVSVEFKATTEHNGQPRTDRMTASAKIDNGRIKSLQEHSKK ?
Result: -0.297

Query: // same read-out, input: DEHKEAHQFAREMNKALETGDPDRYAQLADPNVKVDIGDKTYKGREDMSQYIEDLLTDADHVSMNIRSIDVQGEKVSLDFEVSNDSNGQQTRRKVKVTAERQGDKLVIVSIKVS
Result: 0.184

Query: // same read-out, input: DEDRMRKLLEQFLTALLQGDPEKMMELADEDVRMTYGDKEYHGREQVRDWAKDYRDKVDHASVHSYEVHGDKAQAIVVANVNGRTLSYTVVVRFQDGRAKHIKFESS
Result: 2.23

Query: // same read-out, input: DEEANKNMKDMWRTGDWKQIAENADEDAHYQVGDKKFSGREQVQTFIELLQNRVDDQNIRDMEDKGNEIDIEFTVVINGRKLVLHATVQAHNGRVKSWTVKVTDRDDKRKLDEALR
Result: 0.307

Query: // same read-out, input: DEEDIRRIVHEFNRAVQRGNPDDVVRLLDKHAKIVVGEFDVTGREDARKFAEQLRSMADHVTIKSMSVQGDKAHVVIVFDINGKKLTLTFEVQLHNGRVQNLHVDVRDEEEFSRNVG
Result: 0.782

Query: // same read-out, input: DDHAVSFVEEMLRIEKTGNHQQLENKADPNAEAEYGDKTYHGMEDFARELVRQLREWRLDYKSIDVQAHNGRAEVDVDVLVDIDGEPVRFRVTIVFQQHNGRLKNQSMRMSTDQLRKQQR
Result: 0.121

Query: // same read-out, input: DDDEMRKLLTRLADNYKHNDPNKLAEQMDPDVEIEIGDKTYHGRENVMKHWKEQHERVDHVNIQHLDAQGENLVMTFNVTVNGKHVTVRIIFNVKNGRIKSVIVDPDDIKKLEG
Result: 1.48

Query: // same read-out, input: DDKDADHVQRALRNLERGDPEKADTMFDPNAHVRIGDKEIHGREQLNHWVERVHTEMRQRWDFKDVNEHENHVQIDVSITTEKNGQPRSKHVKLNARVNNGTVTSVEQQDDG
Result: -0.164

Query: // same read-out, input: DDKRKADEFAKELVKAVQTGDSDNIRKLLDPNARINVGEKHYQGKDSMAKIMVRIAEDVDHISARVISVRDHNGSAVIHIEVQNNHNGRNSRTRVILHLTDHNGRIKLRERREG
Result: 0.749

Query: // same read-out, input: DEDHIKTHAEELMNALSRGDEKRFVDLVDPNARFRIGDKEYKGSEQLHTLMREIHTEVDHIEVRHLRVRNGQVQATIRYDINGKTRSMTIHFEVENGRVKHMEVSSQ
Result: 1.3

Query: // same read-out, input: DTEELQRLLTLVETNDFETLAKQADENARADVGDHKITGREDITRWAKQLSDRIDHVEVRSLDIQGDKAVAVLQFHVNGRTMVFRVHISAHNGKVKHFQVKVRDENARKQLKRVVD
Result: 0.147

Query: // same read-out, input: DEDNQTQTAERVVEIMRTGDEHKMRNLADENVKIQIGDKKYRGRDEASKQAKELRDRVDRLRVVRFDVHGNKVRIVMQFKYNGVTVNFKFTVEIHNGRVKSMEMRYTNPEDLKRARS
Result: 0.182

Query: // same read-out, input: DEEQLKMARELFEIMHTGDPDQLKEQFPPDAHFNIGDKRVSGMTEFARQVENEHKEQRRSIDIKSMDVNSPHVTIQARFEVEHNGQPHTSTATIQFQFQNGRFLNMRVQSHQ
Result: -0.106

Query: // same read-out, input: DEERVRKVVEKLVDAVTRGDKDDIKKMLKKHVEFKLVDQEYKGVDQAVKVVKELHDYGMEVHVKEVRVKGDTAHATTVWKKGNTEAHVKVEYHVRDDKVEKVKIQWTEEAQKALKHG
Result: 0.283

Query: // same read-out, input: DEEELQRWAERIVEAFTHGDPQRLSKNVDKNVKVTVGEHEYHGKEELNKILEEIRRQADRIHYKSVDVQGDRANFDMVMNVNGKNVKFTLIVRFENGHAKHLEFDPRMWRVVQR
Result: 1.53

Query: // same read-out, input: DEDRLREQATNFIEAMQTGDTKRVDEQIDKDAQLVVGEKKYEGREQISTFVKEMHHQFDHVRLQRVTVSGNKVLLDVVMDFNGKDLRINIVIHMNNGKISQVQVDYTNPEDAKTARG
Result: 0.587

Query: // same read-out, input: DRTKTAKKVWDDFRSIMENNDPKEAEKLFDENAKADLGSKQVHGREQMVEMLRELAERVDHVEIRMKTVTDDNGQLNIEAEVRAEINGKQHTWRNQLNVVQQGDKRRIVSAKYG
Result: -0.42
